The reader will find reported viability, T/C values listed item by item below.
- Tested on: Hs578T multi-cell spheroids, viability
- PROCEDURE DETAILS: Anticancer human tumor Hs578T cell line growth inhibition [IpAb];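 note: drug exposure lasted 7 days before readout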
- ASSAY CONDITIONS: second compound 0.316 µM; first compound 0.316 µM; stronger effect = lower value
Reply with just the number (in %).

Answered examples (2):
CC1(C)CCC(CN2CCN(c3ccc(C(=O)NS(=O)(=O)c4ccc(NCC5CCOCC5)c([N+](=O)[O-])c4)c(Oc4cnc5[nH]ccc5c4)c3)CC2)=C(c2ccc(Cl)cc2)C1 + CCN1CCN(Cc2ccc(Nc3ncc(F)c(-c4cc(F)c5nc(C)n(C(C)C)c5c4)n3)nc2)CC1	80.6
CCCS(=O)(=O)Nc1ccc(F)c(C(=O)c2c[nH]c3ncc(-c4ccc(Cl)cc4)cc23)c1F + CCN1CCN(Cc2ccc(Nc3ncc(F)c(-c4cc(F)c5nc(C)n(C(C)C)c5c4)n3)nc2)CC1	87.8

Next compound, please.
Tell me the measured viability, T/C of Cc1nc(NC(=O)N2CCCC2C(N)=O)sc1-c1ccnc(C(C)(C)C(F)(F)F)c1 (stereo not drawn) + CC(C)NCC(C(=O)N1CCN(c2ncnc3c2C(C)CC3O)CC1)c1ccc(Cl)cc1 , please.
57.1
